- target.desc: CFTR (Homo sapiens)
- Sequence (P13569 with tags, fused parts or gaps DEL508-508): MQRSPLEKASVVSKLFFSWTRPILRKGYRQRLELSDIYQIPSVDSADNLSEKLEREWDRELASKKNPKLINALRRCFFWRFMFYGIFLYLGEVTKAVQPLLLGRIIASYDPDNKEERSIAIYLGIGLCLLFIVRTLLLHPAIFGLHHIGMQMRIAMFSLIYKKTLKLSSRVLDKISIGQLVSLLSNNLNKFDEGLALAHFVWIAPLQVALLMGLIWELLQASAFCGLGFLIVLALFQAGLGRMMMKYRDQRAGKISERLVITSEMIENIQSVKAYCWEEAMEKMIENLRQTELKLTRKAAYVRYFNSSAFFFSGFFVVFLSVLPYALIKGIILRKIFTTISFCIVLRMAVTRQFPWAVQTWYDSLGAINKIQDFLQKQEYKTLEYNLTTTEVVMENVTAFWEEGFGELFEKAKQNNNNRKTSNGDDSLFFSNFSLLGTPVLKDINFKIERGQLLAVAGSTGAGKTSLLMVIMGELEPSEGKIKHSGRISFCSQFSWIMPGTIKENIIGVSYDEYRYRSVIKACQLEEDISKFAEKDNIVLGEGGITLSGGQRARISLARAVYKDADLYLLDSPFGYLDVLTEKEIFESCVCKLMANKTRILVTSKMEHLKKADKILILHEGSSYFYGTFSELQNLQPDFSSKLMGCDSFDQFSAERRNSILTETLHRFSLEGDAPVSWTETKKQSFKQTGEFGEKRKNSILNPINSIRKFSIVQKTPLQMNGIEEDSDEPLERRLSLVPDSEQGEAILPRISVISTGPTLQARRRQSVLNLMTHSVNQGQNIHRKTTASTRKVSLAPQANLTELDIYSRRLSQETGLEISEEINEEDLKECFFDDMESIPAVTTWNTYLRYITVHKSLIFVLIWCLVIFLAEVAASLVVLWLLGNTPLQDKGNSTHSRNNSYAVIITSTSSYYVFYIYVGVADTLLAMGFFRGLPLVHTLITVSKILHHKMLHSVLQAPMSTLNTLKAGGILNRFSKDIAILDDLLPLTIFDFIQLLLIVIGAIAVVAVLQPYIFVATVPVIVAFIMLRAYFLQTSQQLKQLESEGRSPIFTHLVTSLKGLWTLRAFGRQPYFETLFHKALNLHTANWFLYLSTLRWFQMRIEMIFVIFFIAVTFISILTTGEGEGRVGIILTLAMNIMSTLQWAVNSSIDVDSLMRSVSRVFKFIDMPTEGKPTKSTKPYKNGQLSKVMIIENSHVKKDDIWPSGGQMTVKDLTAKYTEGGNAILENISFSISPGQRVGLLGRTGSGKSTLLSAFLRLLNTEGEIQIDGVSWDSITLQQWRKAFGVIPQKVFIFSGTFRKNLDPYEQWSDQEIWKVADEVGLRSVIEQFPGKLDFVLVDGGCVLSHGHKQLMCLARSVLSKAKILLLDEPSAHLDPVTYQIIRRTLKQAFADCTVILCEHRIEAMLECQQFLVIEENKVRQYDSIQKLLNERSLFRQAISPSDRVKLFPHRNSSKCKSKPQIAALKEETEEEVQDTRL
- method.description: Membrane potential dye, Enteroid Assay B
- Type: cell-based
- details: Table 8; human enteroid cells, 18-24 hours; acute 10 μM forskolin and 300 nM ivacaftor; read-out: Ent. B EC50
readout.kind: EC50

Example results:
compound	readout.kind	experimental.value
Cc1cccc(C)c1-c1cc2nc(n1)NS(=O)(=O)c1cccc(c1)C(=O)N(CC(C)(C)O)[C@H](CC(C)C)CO2	EC50	< 1000 nM
Cc1cccc(C)c1-c1cc2nc(n1)NS(=O)(=O)c1cccc(c1)C(=O)N(Cc1ccccn1)[C@H](CC(C)(C)C)CO2	EC50	< 1000 nM
Cc1cccc(C)c1-c1cc2nc(n1)NS(=O)(=O)c1cccc(c1)C(=O)N(Cc1cnccn1)[C@H](CC(C)(C)C)CO2	EC50	< 1000 nM
Cc1cccc(C)c1-c1cc2nc(n1)NS(=O)(=O)c1cccc(c1)C(=O)N(CC1CC(C)(O)C1)[C@H](CC(C)(C)C)CO2 (stereo partly shown) [Compound 665]	EC50	< 1000 nM
Cc1cccc(C)c1-c1cc2nc(n1)NS(=O)(=O)c1cccc(c1)C(=O)N(Cc1ccc(NC(=O)OC(C)C)nc1)[C@H](CC(C)(C)C)CO2	EC50	< 1000 nM
Cc1cccc(C)c1-c1cc2nc(n1)NS(=O)(=O)c1cccc(c1)C(=O)N(C)CC(c1ccc(CC3(C(F)(F)F)CC3)cn1)O2 (single isomer, unassigned) [Compound 105]	EC50	< 1000 nM
Cc1cccc(C)c1-c1cc2nc(n1)NS(=O)(=O)c1cccc(c1)C(=O)N(Cc1ncccn1)[C@H](CC(C)(C)C)CO2	EC50	< 1000 nM
Cc1cccc(C)c1-c1cc2nc(n1)NS(=O)(=O)c1cc(n(C)n1)C(=O)N(Cc1ccccc1)[C@H](CC(C)(C)C)CO2	EC50	3000 to 30000 nM
CCOC(=O)CCCCN1C(=O)c2cc(nn2C)S(=O)(=O)Nc2nc(cc(-c3c(C)cccc3C)n2)OC[C@H]1CC(C)(C)C	EC50	3000 to 30000 nM
Cc1cccc(C)c1-c1cc2nc(n1)NS(=O)(=O)c1cccc(c1)C(=O)N(CCCC(C)(C)O)[C@H](CC(C)(C)C)CO2	EC50	< 1000 nM

Lab book: EC50 of Cc1cccc(C)c1-c1cc2nc(n1)NS(=O)(=O)c1cccc(c1)C(=O)N(CC1CC(C)(O)C1)[C@H](CC(C)(C)C)CO2 (stereo partly shown) [Compound 664] noted as < 1000 nM

Lookup result for Cc1cccc(C)c1-c1cc2nc(n1)NS(=O)(=O)c1cccc(c1)C(=O)N(Cc1cccnn1)[C@H](CC(C)(C)C)CO2 ; measured EC50: < 1000 nM

EC50 for Cc1cccc(C)c1-c1cc2nc(n1)NS(=O)(=O)c1cccc(n1)C(=O)N(Cc1ccccc1)[C@H](CC(C)(C)C)CO2 is < 1000 nM

====

- target.desc: CFTR (Homo sapiens)
- method.description: Membrane potential dye, Enteroid Assay A
- Format: cell-based
- details: Table 6; human enteroid cells, 18-24 hours; acute 10 μM forskolin and 300 nM ivacaftor; read-out: Ent. A EC50
pEC50: −log10 of the molar value.
readout.kind: pEC50

Example cases with answers are listed next.
>>> print(df.to_string())
                                   compound          target_desc  experimental_value
0  COc1ncccc1CN1C(=O)c2cccc(c2)S(=O)(=O)Nc2nc(cc(-c3c(C)cccc3C)n2)OC[C@H]1CC(C)C  CFTR (Homo sapiens)              > 6.00
1  Cc1cccc(C)c1-c1cc2nc(n1)NS(=O)(=O)c1cccc(c1)C(=O)N(C)[C@H](CC(C)C)[C@H](C)O2  CFTR (Homo sapiens)              > 6.00
2  Cc1cccc(C)c1-c1cc2nc(n1)NS(=O)(=O)c1cccc(c1)C(=O)N(CC1CCN(C)CC1)[C@H](CC(C)(C)C)CO2  CFTR (Homo sapiens)        5.52 to 6.00

Fill in: CFTR (Homo sapiens) pEC50 for Cc1cccc(C)c1-c1cc2nc(n1)NS(=O)(=O)c1cccc(c1)C(=O)N(CCC(C)C)[C@H](CCC1(C(F)(F)F)CC1)CO2 = > 6.00

For the compound Cc1cccc(C)c1-c1cc2nc(n1)NS(=O)(=O)c1cccc(c1)C(=O)N(Cc1ccccc1C#N)[C@H](CC(C)C)CO2 , the measured pEC50 on CFTR (Homo sapiens) was 5.52 to 6.00

pEC50 of Cc1cccc(C)c1-c1cc2nc(n1)NS(=O)(=O)c1cccc(c1)C(=O)N(C)CC(COCc1ccccc1)O2 (stereo not shown) , assay on CFTR (Homo sapiens), is 5.52 to 6.00

Entry Cc1cccc(C)c1-c1cc2nc(n1)NS(=O)(=O)c1cccc(c1)C(=O)N(CC1CC3C=C[C@@H]1C3)[C@H](CC(C)C)CO2 (stereo partly shown) : pEC50 on CFTR (Homo sapiens) = > 6.00

Short answer on CFTR (Homo sapiens) for Cc1cccc(C)c1-c1cc2nc(n1)NS(=O)(=O)c1cccc(c1)C(=O)N(Cc1ccnn1C)[C@H](CC(C)C)CO2 , pEC50: > 6.00

Form: item Cc1cccc(C)c1-c1cc2nc(n1)NS(=O)(=O)c1cccc(c1)C(=O)N(CCO)[C@H](CC(C)C)CO2 ; test system CFTR (Homo sapiens); pEC50: > 6.00

Tested system CFTR (Homo sapiens); pEC50 recorded for Cc1cccc(C)c1-c1cc2nc(n1)NS(=O)(=O)c1cccc(c1)C(=O)N(CCC1CCN(C)CC1)[C@H](CC(C)C)CO2 was > 6.00

Entry CCC(CC)CN1C(=O)c2cccc(c2)S(=O)(=O)Nc2nc(cc(-c3c(C)cccc3C)n2)OC[C@H]1CC(C)C , tested on CFTR (Homo sapiens), has a reported pEC50 of > 6.00

Lab entry: CFTR (Homo sapiens) assay, compound COc1ccccc1CN1C(=O)c2cccc(c2)S(=O)(=O)Nc2nc(cc(-c3c(C)cccc3C)n2)OC[C@H]1CC(C)C , pEC50 = > 6.00

# Cc1cccc(C)c1-c1cc2nc(n1)NS(=O)(=O)c1cccc(c1)C(=O)N(C)[C@H](CC(C)C)CO2 with CFTR (Homo sapiens): pEC50 is > 6.00

Measured pEC50 for this entry Cc1cccc(C)c1-c1cc2nc(n1)NS(=O)(=O)c1cccc(c1)C(=O)N(C)[C@H](C)[C@@H](c1ccc(C(C)(C)C)cc1)O2 on CFTR (Homo sapiens): > 6.00
